As shown below, each of these compounds has a reported relative viability value.
System: NCI-H727
Protocol Notes: relative viability (nuclei count vs DMSO), 5 days (fraction); higher = more cells survive
Condition Description: first compound 0.01 µM
Quantity Kind: relative viability

[[record]]
compound = "NC(=O)Nc1cc(-c2cccc(F)c2)sc1C(=O)N[C@H]1CCCNC1 [AZD7762] + Nc1ncn([C@H]2C[C@H](O)[C@@H](CO)O2)c(=O)n1 [Decitabine] (partner 2 µM)"
quantity_kind = "relative viability"
meas_value = 1.01

[[record]]
compound = "NC(=O)Nc1cc(-c2cccc(F)c2)sc1C(=O)N[C@H]1CCCNC1 [AZD7762] + CC(=O)Nc1cccc(-n2c(=O)n(C3CC3)c(=O)c3c(Nc4ccc(I)cc4F)n(C)c(=O)c(C)c32)c1 [Trametinib] (partner 0.02 µM)"
quantity_kind = "relative viability"
meas_value = 0.361

[[record]]
compound = "NC(=O)Nc1cc(-c2cccc(F)c2)sc1C(=O)N[C@H]1CCCNC1 [AZD7762] + CC1(C)CCC(c2ccc(Cl)cc2)=C(CN2CCN(c3ccc(C(=O)NS(=O)(=O)c4ccc(N[C@H](CCN5CCOCC5)CSc5ccccc5)c(S(=O)(=O)C(F)(F)F)c4)cc3)CC2)C1 [Navitoclax] (partner 0.5 µM)"
quantity_kind = "relative viability"
meas_value = 0.456

[[record]]
compound = "NC(=O)Nc1cc(-c2cccc(F)c2)sc1C(=O)N[C@H]1CCCNC1 [AZD7762] + COc1cc2c(Oc3ccc(NC(=O)C4(C(=O)Nc5ccc(F)cc5)CC4)cc3F)ccnc2cc1OCCCN1CCOCC1 [Foretinib] (partner 0.25 µM)"
quantity_kind = "relative viability"
meas_value = 0.989


---

System: NCI-H522
Protocol Notes: relative viability (nuclei count vs DMSO), 5 days (fraction); higher = more cells survive
Condition Description: first compound 0.1 µM
Quantity Kind: relative viability

[[record]]
molecule = "NC(=O)Nc1cc(-c2cccc(F)c2)sc1C(=O)N[C@H]1CCCNC1 [AZD7762] + Cc1cc(Nc2cc(N3CCN(C)CC3)nc(Sc3ccc(NC(=O)C4CC4)cc3)n2)n[nH]1 [Tozasertib] (partner 0.1 µM)"
meas_value = 0.621

[[record]]
molecule = "NC(=O)Nc1cc(-c2cccc(F)c2)sc1C(=O)N[C@H]1CCCNC1 [AZD7762] + CCNC(=O)c1noc(-c2cc(C(C)C)c(O)cc2O)c1-c1ccc(CN2CCOCC2)cc1 [Luminespib] (partner 0.01 µM)"
meas_value = 1.14

[[record]]
molecule = "NC(=O)Nc1cc(-c2cccc(F)c2)sc1C(=O)N[C@H]1CCCNC1 [AZD7762] + Nc1nc2[nH]cc(CCc3ccc(C(=O)N[C@@H](CCC(=O)O)C(=O)O)cc3)c2c(=O)[nH]1 [Pemetrexed] (partner 0.2 µM)"
meas_value = 0.862

[[record]]
molecule = "NC(=O)Nc1cc(-c2cccc(F)c2)sc1C(=O)N[C@H]1CCCNC1 [AZD7762] + CC(=O)Nc1cccc(-n2c(=O)n(C3CC3)c(=O)c3c(Nc4ccc(I)cc4F)n(C)c(=O)c(C)c32)c1 [Trametinib] (partner 0.02 µM)"
meas_value = 0.737


---

Test system: NCI-H520
Protocol Notes: relative viability (nuclei count vs DMSO), 5 days (fraction); higher = more cells survive
Condition Description: first compound 0.08 µM
Criterion: relative viability strictly less than 0.3. Met: y. Not met: n.

[[record]]
molecule = "C=C1C(=O)O[C@@H](CCCCCCCC)[C@@H]1C(=O)O [C-75] + Cc1cc(Nc2cc(N3CCN(C)CC3)nc(Sc3ccc(NC(=O)C4CC4)cc3)n2)n[nH]1 [Tozasertib] (partner 0.1 µM)"
group = "n"

[[record]]
molecule = "C=C1C(=O)O[C@@H](CCCCCCCC)[C@@H]1C(=O)O [C-75] + O=C(c1cc(Cc2n[nH]c(=O)c3ccccc23)ccc1F)N1CCN(C(=O)C2CC2)CC1 [Olaparib] (partner 8 µM)"
group = "n"

[[record]]
molecule = "Oc1nc(-c2ccc(C(F)(F)F)cc2)nc2c1CSCC2 [XAV939] + Nc1nc2[nH]cc(CCc3ccc(C(=O)N[C@@H](CCC(=O)O)C(=O)O)cc3)c2c(=O)[nH]1 [Pemetrexed] (partner 0.2 µM)"
group = "n"

[[record]]
molecule = "Oc1nc(-c2ccc(C(F)(F)F)cc2)nc2c1CSCC2 [XAV939] + Cc1nc(Nc2ncc(C(=O)Nc3c(C)cccc3Cl)s2)cc(N2CCN(CCO)CC2)n1 [Dasatinib] (partner 0.075 µM)"
group = "y"

[[record]]
molecule = "Oc1nc(-c2ccc(C(F)(F)F)cc2)nc2c1CSCC2 [XAV939] + O=C(CCCCCCC(=O)Nc1ccccc1)NO [Vorinostat] (partner 1 µM)"
group = "n"

